target: Recombinant human KIF18A (1-467 His-tagged) protein (Homo sapiens); construct: Recombinant human KIF18A (1-467 His-tagged) protein; His; assay: KIF18A Enzyme Assay: microtubule-stimulated ATPase activity assay (ADP-Glo); conditions: KIF18A protein 30 nM, 30 μg/mL pig microtubules, ATP at Km 75 μM, ADP-Glo luminescence, RT
Sequence (Q8NI77 1-467): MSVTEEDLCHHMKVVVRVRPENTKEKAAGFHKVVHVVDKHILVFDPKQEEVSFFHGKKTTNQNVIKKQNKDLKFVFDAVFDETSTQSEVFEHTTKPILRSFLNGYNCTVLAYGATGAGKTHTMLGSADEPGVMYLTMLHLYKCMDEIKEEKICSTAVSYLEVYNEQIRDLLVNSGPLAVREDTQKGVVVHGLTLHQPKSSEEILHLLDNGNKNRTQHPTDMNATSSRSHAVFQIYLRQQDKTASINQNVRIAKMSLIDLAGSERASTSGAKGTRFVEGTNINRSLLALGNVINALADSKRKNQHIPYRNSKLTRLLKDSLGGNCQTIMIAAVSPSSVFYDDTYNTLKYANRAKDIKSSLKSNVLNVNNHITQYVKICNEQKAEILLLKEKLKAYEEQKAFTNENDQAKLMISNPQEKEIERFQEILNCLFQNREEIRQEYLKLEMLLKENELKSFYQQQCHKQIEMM
Sequence (P02550 whole entry partner): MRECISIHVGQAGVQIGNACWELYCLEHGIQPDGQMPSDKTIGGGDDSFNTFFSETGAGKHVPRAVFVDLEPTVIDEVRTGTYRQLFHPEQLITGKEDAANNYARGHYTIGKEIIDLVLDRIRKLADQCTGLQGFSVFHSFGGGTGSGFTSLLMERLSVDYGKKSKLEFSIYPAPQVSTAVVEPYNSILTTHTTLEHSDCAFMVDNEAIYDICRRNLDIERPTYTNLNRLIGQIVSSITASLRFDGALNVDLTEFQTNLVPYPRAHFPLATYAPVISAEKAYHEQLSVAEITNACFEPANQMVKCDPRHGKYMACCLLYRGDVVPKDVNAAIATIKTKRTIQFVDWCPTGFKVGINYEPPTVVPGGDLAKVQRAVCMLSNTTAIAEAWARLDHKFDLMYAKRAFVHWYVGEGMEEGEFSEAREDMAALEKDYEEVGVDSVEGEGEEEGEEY
Sequence (P02554 whole entry partner): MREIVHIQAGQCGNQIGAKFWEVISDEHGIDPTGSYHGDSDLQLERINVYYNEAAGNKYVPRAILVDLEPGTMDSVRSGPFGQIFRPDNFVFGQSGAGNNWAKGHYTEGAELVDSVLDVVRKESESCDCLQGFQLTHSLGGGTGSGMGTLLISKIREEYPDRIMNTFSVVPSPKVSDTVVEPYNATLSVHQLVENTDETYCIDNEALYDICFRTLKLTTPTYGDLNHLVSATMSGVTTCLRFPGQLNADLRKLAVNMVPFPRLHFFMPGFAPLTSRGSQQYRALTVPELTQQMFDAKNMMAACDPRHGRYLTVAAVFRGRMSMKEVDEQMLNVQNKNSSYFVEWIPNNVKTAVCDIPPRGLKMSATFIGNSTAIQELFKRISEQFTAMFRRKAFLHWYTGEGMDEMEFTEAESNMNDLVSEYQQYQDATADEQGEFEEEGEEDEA
Friendly reminder: IC50 below 40 nM is 1 (yes), at or above is 0 (no).

1) O=C(NCCO)c1ccc(C(=O)Nc2cccc(S(=O)(=O)C3CCCC3)c2)c(N2CCC3(CC2)CC3)c1    0 (no)
2) CC(C)(C)NS(=O)(=O)c1cccc(NC(=O)c2ccc(C(=O)NCCO)cc2N2CCC3(CC2)CC3)c1    0 (no)
3) CN(C)S(=O)(=O)c1ccc(C(=O)Nc2cccc(S(=O)(=O)NC(C)(C)C)c2)c(N2CCC3(CC2)CC3)c1    0 (no)
4) O=C(Nc1ccc(NS(=O)(=O)CCO)cc1N1CCC2(CC1)CC2)c1cccc(N2CCCCC2)c1    1 (yes)
5) CN(CCO)C(=O)c1ccc(C(=O)Nc2cccc(S(=O)(=O)NC(C)(C)C)c2)c(N2CCC3(CC2)CC3)c1    0 (no)
6) CC(C)S(=O)(=O)Nc1ccc(C(=O)Nc2cccc(S(=O)(=O)NC(C)(C)C)c2)c(N2CCC3(CC2)CC3)c1    1 (yes)
7) CS(=O)(=O)c1ccc(C(=O)Nc2cccc3cccnc23)c(N2CCC3(CC2)CC3)c1    0 (no)
8) CS(=O)(=O)c1ccc(C(=O)Nc2cccc(C3CC3)c2)c(N2CCC3(CC2)CC3)c1    0 (no)
9) O=C(Nc1cccc(N2CCC(F)(F)CC2)c1)c1ccc(NS(=O)(=O)CCO)cc1N1CCC2(CC1)CC2    1 (yes)
10) C[C@@H](CO)S(=O)(=O)Nc1ccc(C(=O)Nc2cccc(S(=O)(=O)NC(C)(C)C)c2)c(N2CCC3(CC2)CC3)c1 (single isomer, unassigned)    0 (no)
11) Cc1cc(NC(=O)c2ccc(NS(=O)(=O)CCO)cc2N2CCC3(CC2)CC3)cc(N2CCC(F)(F)CC2)c1    1 (yes)
12) CC(C)(C)NS(=O)(=O)c1cccc(NC(=O)c2ccc(S(=O)(=O)NC3(C)CC3)cc2N2CCC3(CC2)CC3)c1    0 (no)
13) CC(C)(C)NS(=O)(=O)c1cccc(NC(=O)c2ccc([C@@](C)(O)CO)cc2N2CCC3(CC2)CC3)c1 (single isomer, unassigned)    0 (no)
14) CC(C)(C)NS(=O)(=O)c1cccc(NC(=O)c2ccc(C3(O)COC3)cc2N2CCC3(CC2)CC3)c1    0 (no)
15) N=[S@](=O)(c1cccc(NC(=O)c2ccc(NS(=O)(=O)CCO)cc2N2CCC3(CC2)CC3)c1)N1CCC1 (single isomer, unassigned)    0 (no)
16) CC(C)(C)[S@](=N)(=O)c1cccc(NC(=O)c2ccc(NS(=O)(=O)CCO)cc2N2CCC3(CC2)CC3)c1    0 (no)
17) C[C@H](CO)S(=O)(=O)Nc1ccc(C(=O)Nc2cccc(S(=O)(=O)NC(C)(C)C)c2)c(N2CCC3(CC2)CC3)c1 (single isomer, unassigned)    0 (no)
18) N=[S@@](=O)(c1cccc(NC(=O)c2ccc(NS(=O)(=O)CCO)cc2N2CCC3(CC2)CC3)c1)N1CCC1 (single isomer, unassigned)    0 (no)
19) CNS(=O)(=O)c1ccc(C(=O)Nc2cccc(S(=O)(=O)NC(C)(C)C)c2)c(N2CCC3(CC2)CC3)c1    1 (yes)
20) CC(C)(C)NS(=O)(=O)c1cccc(NC(=O)c2ccc(S(=O)(=O)NC3CC3)cc2N2CCC3(CC2)CC3)c1    1 (yes)
21) CC(C)(C)NS(=O)(=O)c1cccc(NC(=O)c2ccc(-c3ncco3)cc2N2CCC3(CC2)CC3)c1    0 (no)
